# Experimental target: Human immunodeficiency virus type 1 protease (Human immunodeficiency virus 1, UniProt Q72874)
Endpoint name: IC50 (nM)
Just the number in nM, nothing appended.

structure_smiles_string=CC(C)c1ccccc1Sc1c(O)cc(-c2cccc([N+](=O)[O-])c2)oc1=O unit_abbreviation=nM reported_measurement=67
structure_smiles_string=COc1ccc(-c2cc(O)c(Sc3ccccc3C(C)C)c(=O)o2)cc1 unit_abbreviation=nM reported_measurement=83
structure_smiles_string=CC(C)c1ccccc1Sc1c(O)cc(-c2ccc(Cl)cc2)oc1=O unit_abbreviation=nM reported_measurement=76

Shift focus to the following entry.
### Prompt Tell me IC50 reported for `CC(C)c1ccccc1Sc1c(O)cc(-c2cccc(N(C)C)c2)oc1=O`
### Response 114
